method: cells
Format: functional
condition.context: Homo sapiens, MDA435
Description: Antiproliferative activity against human MDA-435 breast carcinoma cell line
pIC50: −log10 of the molar value.
pIC50 for assorted compounds
property: pIC50

In [3]: df
Out[3]:
                               smiles_string  property  test_result
 0        O=C(CCCCCCc1cnc(-c2ccc(F)cc2)o1)NO     pIC50         5.10
 1       COc1ccc(-c2cnc(CCCCCCC(=O)NO)o2)cc1     pIC50         5.60
 2  O=C(CCCCCCc1cnc(-c2ccc(OC(F)(F)F)cc2)o1)NO     pIC50         4.69
 3     O=C(CCCCCCc1nc(-c2ccc3ccccc3c2)cs1)NO     pIC50         6.07
 4  O=C(CCCCCCc1cnc(-c2ccc(-c3ccccc3)cc2)o1)NO     pIC50         4.01
 5       O=C(CCCCCCc1ncc(-c2ccc(Br)cc2)o1)NO     pIC50         5.17
 6  O=C(CCCCCCc1ncc(-c2ccc(-c3ccc(Cl)cc3)cc2)o1)NO     pIC50         6.02
 7     COc1cccc(OC)c1-c1csc(CCCCCCC(=O)NO)n1     pIC50         5.54
 8       COc1ccc(-c2csc(CCCCCCC(=O)NO)n2)cc1     pIC50         5.53
 9  O=C(CCCCCCc1nc(-c2ccc(-c3ccccc3)cc2)cs1)NO     pIC50         5.71
10           O=C(CCCCCCc1ncc(-c2ccccc2)o1)NO     pIC50         5.66
11       O=C(CCCCCCc1nc(-c2ccc(Br)cc2)cs1)NO     pIC50         5.09
12  O=C(CCCCCCc1nc(-c2ccc(OC(F)(F)F)cc2)cs1)NO     pIC50         5.69
13  O=C(CCCCCCc1nc(-c2ccc(C(F)(F)F)cc2)cs1)NO     pIC50         6.07

---

tgt: Histone deacetylase (HDAC1 and HDAC2) (Homo sapiens, UniProt Q13547+Q92769)
method: Inhibitory activity against histone deacetylase (HDAC1 and HDAC2) isolated from K562 erythroleukemia cells
Type: cell-based
Mark y only when IC50 stays strictly below 50 nM. Values equal to the cut-off are n.

In [3]: df
Out[3]:
                              smiles_string  group_label
0               O=C(CCCCCCNC(=O)c1ccccc1)NO            n
1                    O=C(CCCCCCOc1ccccc1)NO            n
2           O=C(CCCCCCc1nc(-c2ccccc2)cs1)NO            y
3           O=C(CCCCCCc1ncc(-c2ccccc2)o1)NO            y
4  O=C(CCCCCCc1nc(-c2ccc(C(F)(F)F)cc2)cs1)NO            y
5      CNC(=O)C(=O)CCCCCCc1cnc(-c2ccccc2)s1            y
6  O=C(CCCCCCc1cnc(-c2ccc(-c3ccccc3)cc2)o1)NO            y

---

tgt: Histone deacetylase (HDAC1 and HDAC2) (Homo sapiens, UniProt Q13547+Q92769)
method: Inhibitory activity against histone deacetylase (HDAC1 and HDAC2) isolated from K562 erythroleukemia cells
Assay type: cell-based
property: IC50 (nM)

In [3]: df
Out[3]:
                               smiles_string  property  test_result
 0  CNC(=O)C(=O)CCCCCCc1cnc(-c2ccc(Br)cc2)o1      IC50           30
 1           O=C(CCCCCCc1cnc(-c2ccccc2)o1)NO      IC50           13
 2       O=C(CCCCCCc1cnc(-c2ccc(Br)cc2)o1)NO      IC50          4.4
 3                    O=C(CCCCCCCc1ccccc1)NO      IC50          560
 4  O=C(CCCCCCc1ncc(-c2ccc(-c3ccc(Cl)cc3)cc2)o1)NO      IC50          6.8
 5       O=C(CCCCCCc1nc(-c2cccc(Br)c2)cs1)NO      IC50          5.8
 6  O=C(CCCCCCc1nc(-c2ccc(OC(F)(F)F)cc2)cs1)NO      IC50           74
 7       O=C(CCCCCCc1nc(-c2ccc(Br)cc2)cs1)NO      IC50          8.5
 8  CNC(=O)C(=O)CCCCCCc1ncc(-c2ccc(OC)cc2)o1      IC50           11
 9       COc1ccc(-c2csc(CCCCCCC(=O)NO)n2)cc1      IC50          2.5
10          O=C(CCCCCCc1ccc(-c2ccccc2)cc1)NO      IC50           58
11  O=C(CCCCCCc1nc(-c2ccc(-c3ccccc3)cc2)cs1)NO      IC50           11
12     O=C(CCCCCCc1nc(-c2ccc3ccccc3c2)cs1)NO      IC50          4.3
